Measurement Target: T1, human dimeric EGFR (EGFR.mFc) (human)
T1 construct: Soluble dimeric EGFR construct
Assay Text: SPR 37C, mAb captured by anti-human Fc, EGFR.mFc analyte
Recorded Kd for the following binders
Recorded Endpoint: Kd (nM)

| Binder | Unit Descriptor | Value |
| --- | --- | --- |
| H1H0085N (antibody, V domains shown, Tested in human IgG1 Fc format (H1H prefix); first obtained as H1M (mouse IgG1 Fc) from a hybridoma; also called H1M085N; H1H085N) VH: EVQLVESGGGLVQPGRSLRLSCAASGFTFDDYAMHWVRQAPGKGLEWVSGINWNSDKIAYADSVKGRFTISRDNAENSLFLQMNSLRPEDTALYYCVKRGDFWTEYYDYWGQGTLVTVSS VL: DIVMTQSPLSLPVTPGEPASISCRSSQSLLHSNGYNYLDWYLQKPGQSPHLLIYLVSTRASGVPDRFSGSGSGTDFTLKISRVEAEDVGVYYCIQALQTPWTFGQGTKVEIK | nM | 0.12 |
| H1H158P (antibody, human IgG1, V domains shown, Human IgG1 Fc (H1H)) VH: QVQLVESGGGVVQPGGSLRLSCAASGFTFSIYGIHWVRQAPGKGLEWVAVISDDGSNKKYADSVKGRFTISRDNSKNTLYLQMNSLRAEDTAIFYCAKDRITGTHYYGMDVWGQGTTVTVSS VL: DIQMTQSPSSLSASVGDRVSITCRASQDISNYLAWFQQKPGKAPKSLIYAASSLQSGVPSKFSGSGSGIEFTLTISSLQPEDFSTYYCHQYNRFPWTFGQGTKVEIK | nM | 0.0241 |
| H1H147P (antibody, human IgG1, V domains shown, Human IgG1 Fc (H1H)) VH: EVQLVESGPGLVQPSQTLSLTCTVSGGSINSGDFYWSWIRQHPGKGLEWIGHIYYSGITYYSPSLKSRLTISVDTSKNQFSLKLSSVTAADTAVYYCARKRVTGEVDYWGQGTLVTVSS VL: DIQMTQSPSSLSASVGDRITITCQANQDINNYLNWYQQKPGKAPKLLISDASNLETGVPSRFSGSGSGTDFTFTISSLQPEDIATYYCQQYDNLPPTFGQGTRLEIKR | nM | 0.0664 |
| H1H116N (antibody, human IgG1, V domains shown, Tested in human IgG1 Fc format (H1H); also called H1M116N) VH: QVQLQESGPGLVKPSQTLSLTCTVSGGSVSSGDYYWSWIRQHPGKGLDWIGHIYYSGSTYYNPSLKSRVTISLDTSKNQFSLKLNSVTAADTAVYYCARTAITGTMDYWGQGTLVTVSS VL: EIVMTQSPATLSVSAGERATLSCRASQSVSSNLAWFQQKPGQAPRLLIYDASTRATGIPARFSGSGSGTEFTLIISSLQSEDFALYYCQQYNSWWTFGQGTKVEIK | nM | 0.0203 |
| H1H103N (antibody, human IgG1, V domains shown, Tested in human IgG1 Fc format (H1H); also called H1M103N) VH: EVQLVESGGGLVQPGGSLRLSCAASGFTFSSYDMHWVRQTTGKGLEWVSGIGTAGDTYYPGSVKGRFTISREDAKNSLYLQMNSLRAGDTAVYYCARVGYDWNFVAFDYWGQGTLVTVSS VL: DIVMTQSPLSLPVTPGEPASISCRSSQSLLHSNGYNYLDWYLQKPGQSPQLLIHLVSIRASGVPDRFSGSGSGTDFTLKISRVEAEDVGIYYCMQALQTPWTFGQGTKVEIK | nM | 0.109 |
